Cited source for all entries: PubChem BioAssay (NCI)

Record form. Attribute: TGI. Fill in for each entry.
- Tested on: NCI-H460 lung
- test.protocol: NCI tumour cell line growth inhibition, 48 h

Past entries and their recorded results:
compound	TGI
Cc1cccc(/C=N/NC(=S)NC(C)(C)C)n1	> 100 µM
CC1(C)CN=C(c2ccc3ccccc3c2O)N1	> 100 µM
C[N+](C)(C)c1nc(N)nc2c1ncn2C1OC(CO)C(O)C1O (stereo not given)	> 100 µM

# batch: return TGI for each of the 3 compounds below
1. CCOC(=O)C1C2C1C1C(C(=O)OCC)C21 (stereo not given)
2. COc1cccc2c1C(=O)c1c(O)c3c(c(O)c1C2=O)C[C@](O)(C(=O)CO)CC3OC1CC(N)C(OC2CCCCO2)C(C)O1 (stereo not given in full)
3. COc1cc(Nc2ncc(-c3ccccc3)o2)cc(OC)c1OC

// result
["> 100 µM", "0.208 µM", "> 25 µM"]

# batch: return TGI for each of the 3 compounds below
1. O=c1oc2ccccc2cc1-c1nc2ccccc2s1
2. C1CN(C23OC4(N5CCOCC5)C5C6CC(C7C6C4C72)C53)CCO1 (stereo not given)
3. COc1cccc(C2c3cc4c(cc3OC(N3CCOCC3)C2C)OCO4)c1 (stereo not given)

// result
["53 µM", "> 100 µM", "37.7 µM"]

# batch: return TGI for each of the 5 compounds below
1. Cc1nc2ccccc2n1CCc1nc2ccccc2[nH]1
2. NC(=NC1C2CC3CC(C2)CC1C3)Nc1ccc(I)cc1 (stereo not given)
3. CN(c1ccccc1)c1c(-c2ccccc2)c(=O)oc2c1ccc1occc12
4. NC(Cc1ccccc1)C(=O)O (stereo not given)
5. S=C1OC2C3C4CC5C3C(O1)C1C5C4C21 (stereo not given)

// result
> 100 µM
13 µM
> 100 µM
> 100 µM
> 100 µM

// query Value wanted: TGI (NCI-H460 lung) of entry CC(C)=CCC/C(C)=C/CCC1(C)C2COC(=O)C21 (stereo not given)
// result > 100 µM

---

- Test system: K-562 leukemia
- test.protocol: NCI tumour cell line growth inhibition, 48 h
assay.endpoint: TGI

Past entries and their recorded results:
compound	TGI
NCCCN1CCN(CCCNc2ccc3ncn4c5ccccc5c(=O)c2c34)CC1	> 25 µM
O=C(O)c1cc2c(cc1CC(Cc1ccccc1)C(=O)O)CCC2 (centres undefined)	> 100 µM

# batch: return TGI for each of the 2 compounds below
1. C/C(=N\N=C(N)N)c1sc(-c2nc(C)c(/C(C)=N/N=C(N)N)s2)nc1C
2. O=C(O)CCN1C(=O)/C(=C/C(Cl)=C/c2ccccc2)SC1=S

// result
> 100 µM
6.26 µM

---

- Test system: HOP-62 NSCLC
- test.protocol: NCI tumour cell line growth inhibition, 48 h
assay.endpoint: TGI

Past entries and their recorded results:
smiles.repr	TGI
Nc1ncc(Cc2nn3c(COc4ccc(Cl)cc4)nnc3s2)s1	> 100 µM
NC(=O)Cn1c(=O)[nH]c(=O)c2[nH]cnc21	> 100 µM

Continue with the compound presented below.
// query For the compound `Nc1nc(Cl)cc(NCCCCCCCCCCNc2cc(Cl)nc(N)n2)n1` , what TGI is on record?
// result > 100 µM

---

- Test system: OVCAR-3 ovarian
- test.protocol: NCI tumour cell line growth inhibition, 48 h
Record form. Attribute: TGI. Fill in for each entry.

Past entries and their recorded results:
compound	TGI
Cn1cc(/C=C2\C(=O)Nc3cccnc32)c2ccccc21	> 25 µM
O=C(O)CNS(=O)(=O)c1ccc(NC(=O)c2cccc([N+](=O)[O-])c2)cc1	> 100 µM
C/C(=N\N=C(N)N)c1sc(-c2nc(C)c(/C(C)=N/N=C(N)N)s2)nc1C	> 100 µM
CC1(C)CN=C(c2ccc3ccccc3c2O)N1	> 100 µM
O=C(O)C(O)C(O)C1[O][Sb][O]C1CO (stereo unspecified)	> 100 µM

# batch: return TGI for each of the 3 compounds below
1. CCCCN=C(OC1C=CCCC1)SC (stereo unspecified)
2. OCC1=C[C@@](COCc2ccccc2)(OCc2ccccc2)[C@@H](OCc2ccccc2)[C@@H]1OCc1ccccc1
3. OCC1CC2CC1C1(C2)OCCO1 (stereo unspecified)

// result
1. > 100 µM
2. 27.3 µM
3. > 100 µM

# batch: return TGI for each of the 3 compounds below
1. CN(CCc1ccccn1)C(=S)N/N=C/c1ccccn1
2. NC(=S)N1N=C(c2ccc3c(c2)CCC3)CC1c1ccccc1 (stereo unspecified)
3. CC[N+]1(C)CCC(O)(/C=C/c2ccc(Cl)c(Cl)c2)C(C(=O)/C=C/c2ccc(Cl)c(Cl)c2)C1 (stereo unspecified)

// result
1. 25.9 µM
2. 55.8 µM
3. 10.6 µM
